Test system: TNF-α (degradation of IkB in HeLa cells or A431 cells)
Test: Human cell-based assay: inhibition of TNF-α induced degradation of IkB
Details: 10 μM compound, HeLa or A431 cells, read-out: Inhibition at Various Compound Concentrations, 10 μM
Numbered stars: 1 amine (or outer) side, 2 acyl side, 3 side chain; on linkers, the order of the positions; unused ones are H or OH. Bridge positions count the residues as written; N and C are the ends. Square brackets hold non-standard residues; d marks the D form. Peptide text beside a SMILES is read from it. Bip = N[C@@H](Cc1ccc(-c2ccccc2)cc1)C(=O)O; Phe(4-NH2) = Nc1ccc(C[C@H](N)C(=O)O)cc1; d(hPhe) = N[C@H](CCc1ccccc1)C(=O)O; d2Thi = N[C@H](Cc1cccs1)C(=O)O; Suc = O=C(CCC(=O)[*:2])[*:1]; GABA = NCCCC(=O)O
The following compounds are listed with their measured inhibition at 10 µM values.

Solved cases (3 shown):
[[record]]
compound = "NCCCC(=O)N[C@H]1CC(=O)Nc2ccc(cc2)C[C@@H](C(=O)O)NC(=O)[C@@H](Cc2ccccc2)NC(=O)[C@H](Cc2ccc(-c3ccccc3)cc2)NC(=O)[C@@H](Cc2cccs2)NC1=O [Compound 379] (H-[GABA]D[d2Thi][Bip][dF][Phe(4-NH2)]-OH; lactam 2-6)"
quantity_kind = "inhibition at 10 µM"
measured_value = "10 to 50%"

[[record]]
compound = "C[C@@H](NC(=O)[C@@H]1Cc2ccc(cc2)OCC(=O)N[C@H](Cc2cccs2)C(=O)N[C@@H](Cc2ccc(-c3ccccc3)cc2)C(=O)N[C@H](CCc2ccccc2)C(=O)N1)C(=O)O"
quantity_kind = "inhibition at 10 µM"
measured_value = "< 10%"

[[record]]
compound = "O=C1CCC(=O)N[C@H](CCc2ccccc2)C(=O)N[C@@H](Cc2ccc(-c3ccccc3)cc2)C(=O)N[C@H](Cc2ccccc2)C(=O)N[C@H](C(=O)O)Cc2ccc(cc2)N1 [Compound 117] ([d(hPhe)][Bip][dF][Phe(4-NH2)]-OH; linker N-4 via Suc)"
quantity_kind = "inhibition at 10 µM"
measured_value = "50 to 80%"


QUERY: Form field: reported inhibition at 10 µM of `COC(=O)[C@H](CC(=O)O)NC(=O)[C@@H]1Cc2ccc(cc2)OCC(=O)N[C@@H](Cc2cccs2)C(=O)N[C@H](Cc2ccc(-c3ccccc3)cc2)C(=O)N[C@@H](Cc2ccccc2)C(=O)N1`
RESULT: 10 to 50%

###

Tested on: TNF-α (degradation of IkB in HeLa cells or A431 cells)
Assay: Human cell-based assay: inhibition of TNF-α induced degradation of IkB
Conditions: read-out: Inhibition at Various Compound Concentrations, 5 μM
Listing: inhibition at 5 µM of selected compounds

Below: 4 compounds and their reported inhibition at 5 µM.
[[record]]
substance_smiles = "O=C1COc2ccc(cc2)C[C@@H](C(=O)N[C@@H](CCc2ccccc2)C(=O)O)NC(=O)[C@H](Cc2ccccc2)NC(=O)[C@@H](Cc2ccc(-c3ccccc3)cc2)NC(=O)[C@H](Cc2cccs2)N1"
quantity_kind = "inhibition at 5 µM"
measured_value = "10 to 50%"

[[record]]
substance_smiles = "O=C1COc2ccc(cc2)C[C@@H](C(=O)O)NC(=O)[C@H](Cc2ccc(O)cc2)NC(=O)[C@H](Cc2ccc(-c3ccccc3)cc2)NC(=O)[C@H](Cc2cccs2)N1"
quantity_kind = "inhibition at 5 µM"
measured_value = "< 10%"

[[record]]
substance_smiles = "O=C1COc2ccc(cc2)C[C@@H](C(=O)O)NC(=O)[C@H](Cc2ccccc2)NC(=O)[C@H](Cc2ccc(-c3ccncc3)cc2)NC(=O)[C@H](Cc2cccs2)N1"
quantity_kind = "inhibition at 5 µM"
measured_value = "< 10%"

[[record]]
substance_smiles = "O=C1COc2ccc(cc2)C[C@@H](C(=O)N[C@H](Cc2ccccc2)C(=O)O)NC(=O)[C@@H](CCc2ccccc2)NC(=O)[C@H](Cc2ccc(-c3ccccc3)cc2)NC(=O)[C@@H](Cc2cccs2)N1"
quantity_kind = "inhibition at 5 µM"
measured_value = "10 to 50%"


Then there is this compound:
QUERY: Please report the recorded inhibition at 5 µM for `O=C1COc2ccc(cc2)C[C@@H](C(=O)NC2(C(=O)O)CC2)NC(=O)[C@H](Cc2ccccc2)NC(=O)[C@H](Cc2ccc(-c3ccccc3)cc2)NC(=O)[C@H](Cc2cccs2)N1` .
RESULT: 10 to 50%
